Recorded measurements of pIC50, one per entry
Test system: Neutrophil
TEST_DETAILS: Antiinflammatory activity against f-MLP-stimulated human neutrophils assessed as reduction in ROS production incubated for 40 mins measured at intervals of 2 mins by luminol-dependent chemiluminescence assay
Type: functional, cell-based
pIC50: −log10 of the molar value.
READOUT_LABEL: pIC50

given_smiles=COc1cc(-c2oc3cc(O[C@@H]4O[C@H](CO)[C@@H](O)[C@H](O)[C@H]4O)c(OC)c(O)c3c(=O)c2O[C@@H]2O[C@H](CO)[C@H](O)[C@H](O)[C@H]2O)ccc1O measured_value=4.50
given_smiles=COc1cc(/C=C/C(=O)OC[C@H]2O[C@@H](Oc3cc4oc(-c5ccc(O)c(O)c5)c(O[C@@H]5O[C@H](CO)[C@H](O)[C@H](O)[C@H]5O)c(=O)c4c(O)c3OC)[C@H](O)[C@@H](O)[C@@H]2O)ccc1O measured_value=4.44
given_smiles=COc1cc(-c2oc3cc(O)c(OC)c(O)c3c(=O)c2O[C@@H]2O[C@H](CO)[C@H](O)[C@H](O)[C@H]2O)ccc1O measured_value=4.41
given_smiles=COc1cc(/C=C/C(=O)OC[C@H]2O[C@@H](Oc3cc4oc(-c5ccc(O)c(OC)c5)c(O[C@@H]5O[C@H](CO)[C@H](O)[C@H](O)[C@H]5O)c(=O)c4c(O)c3OC)[C@H](O)[C@@H](O)[C@@H]2O)ccc1O measured_value=5.22
given_smiles=COc1c(O)cc2oc(-c3ccc(O)c(O)c3)c(O[C@@H]3O[C@H](CO)[C@H](O)[C@H](O)[C@H]3O[C@@H]3OC[C@](O)(CO)[C@H]3O)c(=O)c2c1O measured_value=5.15

====

Test system: Neutrophil
TEST_DETAILS: Antiinflammatory activity against f-MLP-stimulated human neutrophils assessed as reduction in ROS production incubated for 40 mins measured at intervals of 2 mins by luminol-dependent chemiluminescence assay
Assay type: functional, cell-based
pIC50: −log10 of the molar value.
Decision: pIC50 >= 5 yields class 1, all other cases yield class 0.

molecule="O=c1c(O)c(-c2ccc(O)c(O)c2)oc2cc(O)cc(O)c12 [QUERCETIN]" tested_system=Neutrophil label_class="class 1"
molecule=COc1c(O)cc2oc(-c3ccc(O)c(O)c3)c(O[C@@H]3O[C@H](CO[C@@H]4OC[C@H](O)[C@H](O)[C@H]4O)[C@H](O)[C@H](O)[C@H]3O)c(=O)c2c1O tested_system=Neutrophil label_class="class 1"
molecule=COc1c(O)cc2oc(-c3ccc(O)cc3)c(O[C@@H]3O[C@H](CO)[C@H](O)[C@H](O)[C@H]3O)c(=O)c2c1O tested_system=Neutrophil label_class="class 0"
molecule=COc1c(O)cc2oc(-c3ccc(O)c(O)c3)c(O[C@@H]3O[C@H](CO[C@@H]4O[C@H](CO)[C@@H](O)[C@H](O)[C@H]4O)[C@H](O)[C@H](O)[C@H]3O)c(=O)c2c1O tested_system=Neutrophil label_class="class 1"
molecule=COc1c(O)cc2oc(-c3ccc(O)c(O)c3)c(O[C@@H]3O[C@H](CO)[C@H](O)[C@H](O)[C@H]3O)c(=O)c2c1O tested_system=Neutrophil label_class="class 1"
molecule=COc1c(O[C@@H]2O[C@H](CO)[C@@H](O)[C@H](O)[C@H]2O)cc2oc(-c3ccc(O)c(O)c3)c(O[C@@H]3O[C@H](CO)[C@H](O)[C@H](O)[C@H]3O)c(=O)c2c1O tested_system=Neutrophil label_class="class 0"
molecule=COc1c(O)cc2oc(-c3ccc(O)c(O)c3)c(O[C@@H]3O[C@H](CO)[C@H](O)[C@H](O)[C@H]3O[C@@H]3OC[C@](O)(CO[C@@H]4OC[C@H](O)[C@H](O)[C@H]4O)[C@H]3O)c(=O)c2c1O tested_system=Neutrophil label_class="class 1"
